experiment: refractive index (Na D-line) (dimensionless); xn = mol fraction of the nth substance listed; details: 313.15 K; 100 kPa; Liquid; Standard Abbe refractometry; x1 = 0.3

COMPOUND	refractive index
CN1CCC[C@H]1c1cccnc1 [(-)-3-(N-methylpyrrolidino)pyridine] + OCCCO	1.47831
CN1CCC[C@H]1c1cccnc1 [(-)-3-(N-methylpyrrolidino)pyridine] + CCCCO	1.44779
CN1CCC[C@H]1c1cccnc1 [(-)-3-(N-methylpyrrolidino)pyridine] + CCC(C)O	1.44519
CN1CCC[C@H]1c1cccnc1 [(-)-3-(N-methylpyrrolidino)pyridine] + CC(O)CO	1.4723

###

assay: refractive index (Na D-line) (dimensionless); xn = mol fraction of the nth substance listed; conditions: 303.15 K; 100 kPa; Liquid; Standard Abbe refractometry; x1 = 0.1

MOLECULE	refractive index
CN1CCC[C@H]1c1cccnc1 [(-)-3-(N-methylpyrrolidino)pyridine] + CCCCO	1.41697
CN1CCC[C@H]1c1cccnc1 [(-)-3-(N-methylpyrrolidino)pyridine] + CCC(C)O	1.41438
CN1CCC[C@H]1c1cccnc1 [(-)-3-(N-methylpyrrolidino)pyridine] + CC(O)CO	1.448
CN1CCC[C@H]1c1cccnc1 [(-)-3-(N-methylpyrrolidino)pyridine] + OCCCO	1.45463

Reference for the values: the NIST ThermoML archive (doi:10.1016/j.jct.2016.07.005)
